Parameter Activity: see the listing below.
ASSAY_TARGET: Peptidyl-prolyl cis-trans isomerase F, mitochondrial (Mus musculus)
PROTOCOL: Inhibition of cyclophilin D in mouse HT22 cells assessed as reduction in amyloid beta (1 to 42) induced mitochondrial permeability transition pore opening by measuring increase in green to red fluorescence ratio at 5 uM pretreated for 10 mins followed by amyloid beta (1 to 42) stimulation measured at 1 hr interval for 3 hrs by JC-1 dye based fluorescence assay relative to control
Type: cell-based
Design: scale not given: the % may be the effect or the level left
Reply with the number and its unit after it.

Here is how some compounds turned out for Activity.
Quick check: Activity of CC(C)(C)NC(=O)Nc1ncccc1OCc1ccccc1 ?
23%

Recorded Activity of O=C(Nc1ncccc1OCc1ccc(F)cc1)NC1CCCCCC1 , please.
28%

The record that follows has no Activity shown yet.
Which value of Activity has been reported for O=C(Nc1ncccc1OCc1cccc(F)c1)NC1CCCCCC1 in the records?
91%

###

Items are presented alongside their recorded Activity.
ASSAY_TARGET: Peptidyl-prolyl cis-trans isomerase F, mitochondrial (Mus musculus) (UniProt Q99KR7)
Sequence (Q99KR7 whole entry): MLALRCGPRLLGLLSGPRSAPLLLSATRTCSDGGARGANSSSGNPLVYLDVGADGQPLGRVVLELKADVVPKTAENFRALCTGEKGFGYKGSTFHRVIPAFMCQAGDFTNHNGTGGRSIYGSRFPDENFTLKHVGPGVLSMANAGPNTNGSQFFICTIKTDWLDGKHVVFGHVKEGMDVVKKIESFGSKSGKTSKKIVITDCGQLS
PROTOCOL: Inhibition of cyclophilin D in mouse HT22 cells assessed as reduction in amyloid beta (1 to 42) induced mitochondrial permeability transition pore opening by measuring increase in green to red fluorescence ratio at 5 uM pretreated for 10 mins followed by amyloid beta (1 to 42) stimulation measured at 1 hr interval for 3 hrs by JC-1 dye based fluorescence assay relative to control
Assay type: cell-based
Set-up: scale not given: the % may be the effect or the level left
Value expressed in %; do not type the unit.

Fill in the blank: the reported Activity of CC(C)(C)CC(C)(C)NC(=O)Nc1ncccc1OCc1cccc(Cl)c1 is ____.
50

For the compound shown here, O=C(NCCCl)Nc1ncccc1OCc1ccccc1 , give the reported Activity.
169

For O=C(Nc1ncccc1OCc1ccccc1Cl)NC1CCCCCC1 , what is its reported Activity?
41

Any idea what Activity was measured for CC(C)(C)NC(=O)Nc1ncccc1OCc1ccc(F)cc1 ?
49

Report Activity for O=C(NCCN1CCNCC1)Nc1ncccc1OCc1cccc(Cl)c1 please.
48

What measured Activity goes with O=C(NCCN1CCNCC1)Nc1ncccc1OCc1ccccc1 ?
16

Can you share its Activity? I mean this compound: O=C(NCCCl)Nc1ncccc1OCc1ccccc1Cl
41

Returns the measured Activity for the input compound. Input: CC(C)(C)CC(C)(C)NC(=O)Nc1ncccc1OCc1ccccc1Cl
21

Entry under review: O=C(NCCCl)Nc1ncccc1OCc1cccc(Cl)c1 . Reported Activity?
73

###

ASSAY_TARGET: Peptidyl-prolyl cis-trans isomerase F, mitochondrial (Mus musculus) (UniProt Q99KR7)
PROTOCOL: Inhibition of Cyclophilin D in mouse HT22 cells assessed as neuroprotective activity against amyloid beta (1 to 42) induced impairment of ATP production by measuring cell viability at 5 pretreated for 10 mins followed by amyloid beta (1 to 42) stimulation measured after 7 hrs by luciferase based assay relative to control
READOUT_NAME: Activity (%)
Form entry: value (%) — number only.

Look up Activity: O=C(NCCN1CCNCC1)Nc1ncccc1OCc1ccccc1
78

Give the measured Activity of CC(C)(C)NC(=O)Nc1ncccc1OCc1cccc(F)c1 .
129

Entry under review: NC(=O)CN1CCCC1=O . Reported Activity?
88

# Activity lookup, item CC(C)(C)NC(=O)Nc1ncccc1OCc1ccc(Cl)cc1
104

Below: the item to evaluate.
Param item = O=C(Nc1ncccc1OCc1ccc(Cl)cc1)NC1CCCCCC1 ; retrieve measured Activity.
105

###

Test system: N2a
PROTOCOL: Induction of reactive oxygen species production in mouse Neuro2a cells assessed as H2O2 level at 10 uM after 6 hrs by ROS-Glo luminescence assay relative to control
Assay type: cell-based
Checkbox rule: fold change (FC) lower than 1 = rule met; fold change (FC) not lower than 1 = rule not met.

Regarding O=C(Nc1ncccc1OCc1ccc(F)cc1)NC1CCCCCC1 , kindly confirm whether its fold change (FC) is beneath 1.
rule met

Next:
Below 1 on fold change (FC)? Entry CC(C)(C)NC(=O)Nc1ncccc1OCc1ccccc1
rule met

Quick check: does CC(C)(C)NC(=O)Nc1ncccc1OCc1cccc(F)c1 have fold change (FC) under 1?
rule met

Please state whether fold change (FC) is below 1 for O=C(NCCN1CCNCC1)Nc1ncccc1OCc1ccccc1
rule met

Strictly below 1 in fold change (FC)? O=C(Nc1ncccc1OCc1ccc(Cl)cc1)NC1CCCCCC1
rule not met

###

ASSAY_TARGET: UniProtKB Q12809
Sequence (Q12809 whole entry): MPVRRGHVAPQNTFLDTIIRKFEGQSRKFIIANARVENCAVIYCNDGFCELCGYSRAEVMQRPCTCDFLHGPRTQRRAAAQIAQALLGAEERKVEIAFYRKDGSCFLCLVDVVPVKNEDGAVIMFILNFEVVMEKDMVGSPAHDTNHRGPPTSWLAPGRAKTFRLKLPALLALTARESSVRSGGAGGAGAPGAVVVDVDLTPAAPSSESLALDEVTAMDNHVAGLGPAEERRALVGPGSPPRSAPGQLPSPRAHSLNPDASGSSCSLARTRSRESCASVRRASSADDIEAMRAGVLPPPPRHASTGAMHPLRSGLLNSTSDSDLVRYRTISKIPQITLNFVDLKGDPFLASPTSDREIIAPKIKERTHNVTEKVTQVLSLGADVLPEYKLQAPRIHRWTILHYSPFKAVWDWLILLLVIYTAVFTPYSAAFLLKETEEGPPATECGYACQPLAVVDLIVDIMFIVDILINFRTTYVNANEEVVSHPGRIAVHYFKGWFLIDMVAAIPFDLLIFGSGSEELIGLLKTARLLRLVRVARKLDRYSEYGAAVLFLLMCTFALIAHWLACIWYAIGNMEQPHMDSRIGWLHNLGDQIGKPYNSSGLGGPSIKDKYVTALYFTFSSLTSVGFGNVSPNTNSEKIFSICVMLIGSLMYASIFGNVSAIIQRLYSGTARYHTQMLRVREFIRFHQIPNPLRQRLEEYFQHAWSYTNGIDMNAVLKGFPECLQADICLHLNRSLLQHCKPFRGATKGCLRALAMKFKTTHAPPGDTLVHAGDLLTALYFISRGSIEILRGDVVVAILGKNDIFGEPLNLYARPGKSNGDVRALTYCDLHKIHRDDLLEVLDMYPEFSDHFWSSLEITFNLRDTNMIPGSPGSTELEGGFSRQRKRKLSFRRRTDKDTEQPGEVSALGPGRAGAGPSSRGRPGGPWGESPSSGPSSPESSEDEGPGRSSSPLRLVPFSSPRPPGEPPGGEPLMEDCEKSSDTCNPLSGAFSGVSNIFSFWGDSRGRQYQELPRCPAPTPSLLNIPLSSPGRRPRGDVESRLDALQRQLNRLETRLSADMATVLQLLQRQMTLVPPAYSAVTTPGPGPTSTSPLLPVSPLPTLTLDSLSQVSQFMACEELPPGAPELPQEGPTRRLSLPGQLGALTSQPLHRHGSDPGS
PROTOCOL: Displacement of [3H]-Astemizole from human ERG expressed in HEK293 cell membranes measured after 1 hr by microbeta counting method
READOUT_NAME: IC50

# value lookup — system UniProtKB Q12809, readout IC50, item O=C(NCCN1CCNCC1)Nc1ncccc1OCc1ccccc1
> 28.7 µM

###

PROTOCOL: Effective permeability of the compound at pH 7.4 at 50 uM after 4 hrs by PAMPA
Assay type: physicochemical
PARTICULARS: read-out: Peff
Listed next: entries and their corresponding Papp at 4 h, 50 µM.
Express it in ×10⁻⁶ cm/s; write the number only.

// lookup Papp at 4 h, 50 µM for Cn1c(=O)c2[nH]cnc2n(C)c1=O.O [THEOPHYLLINE]
0.29

Fill in the blank: the reported Papp at 4 h, 50 µM of CC(=O)[C@H]1CC[C@H]2[C@@H]3CCC4=CC(=O)CC[C@]4(C)[C@H]3CC[C@]12C [PROGESTERONE] is ____.
48.8

Can you look up the measured Papp at 4 h, 50 µM of CC(C)(C)NC(=O)Nc1ncccc1OCc1ccccc1 for me?
45.1

Now for a further compound.
Need Papp at 4 h, 50 µM, item O=C(NCCN1CCNCC1)Nc1ncccc1OCc1ccccc1
20.6

###

ASSAY_TARGET: Peptidyl-prolyl cis-trans isomerase F, mitochondrial (Mus musculus)
PROTOCOL: Inhibition of Cyclophilin D in mouse HT22 cells assessed as neuroprotective activity against amyloid beta (1 to 42) induced impairment of ATP production by measuring assessed as recovery of ATP production at 5 uM pretreated for 10 mins followed by amyloid beta (1 to 42) stimulation measured after 7 hrs by luciferase based assay relative to control
Assay type: cell-based
Parameters: scale not given: the % may be the effect or the level left
READOUT_NAME: Activity
The answer should read as a number with its unit following.

Consider the following illustrative entries.
# query: Activity of entry CC(C)(C)NC(=O)Nc1ncccc1OCc1ccccc1
72%

Bench note: what Activity did O=C(Nc1ncccc1OCc1ccc(F)cc1)NC1CCCCCC1 show?
40%

May I ask what Activity has been recorded for CC(C)(C)CC(C)(C)NC(=O)Nc1ncccc1OCc1cccc(F)c1 ?
-140%

Quick one: Activity for O=C(NCCN1CCNCC1)Nc1ncccc1OCc1ccccc1 ?
87%

Further cases:
# get_value(readout='Activity', item= NC(=O)CN1CCCC1=O )
127%

Give its Activity value. Item: CC(C)(C)NC(=O)Nc1ncccc1OCc1ccc(Cl)cc1
13%

Tell me the measured Activity of CCNC(=O)Nc1ncccc1OCc1cccc(F)c1 , please.
41%

What Activity value was documented for this compound, CC(C)(C)NC(=O)Nc1ncccc1OCc1cccc(F)c1 ?
45%

Consider the compound shown here: O=C(Nc1ncccc1OCc1ccc(Cl)cc1)NC1CCCCCC1 What is its recorded Activity?
47%

###

List of viability at 72 h, 10 µM values.
PROTOCOL: Cytotoxicity against mouse Neuro2a cells assessed as cell viability at 10 uM after 72 hrs by MTT assay relative to control
Assay type: cell-based, N2a
PARTICULARS: read-out: Activity
Report the figure along with its unit, number first.

Give the measured viability at 72 h, 10 µM of O=C(Nc1ncccc1OCc1ccc(F)cc1)NC1CCCCCC1 .
93.2%

Requested field: viability at 72 h, 10 µM. Item: CN[C@@H]1C[C@H]2O[C@@](C)([C@@H]1OC)n1c3ccccc3c3c4c(c5c6ccccc6n2c5c31)C(=O)NC4
1.3%

Further cases:
Give the measured viability at 72 h, 10 µM of CC(C)(C)NC(=O)Nc1ncccc1OCc1cccc(F)c1 .
95.8%

Could you tell me which viability at 72 h, 10 µM is on file for CC(C)(C)CC(C)(C)NC(=O)Nc1ncccc1OCc1cccc(F)c1 ?
101%

Name the reported viability at 72 h, 10 µM value associated with the molecule CCNC(=O)Nc1ncccc1OCc1cccc(F)c1
96.6%

What does the record list as viability at 72 h, 10 µM for CC(C)(C)NC(=O)Nc1ncccc1OCc1ccccc1 ?
106%

Could you tell me which viability at 72 h, 10 µM is on file for CC(C)(C)NC(=O)Nc1ncccc1OCc1ccc(Cl)cc1 ?
93.1%

Name the recorded viability at 72 h, 10 µM for O=C(NCCN1CCNCC1)Nc1ncccc1OCc1ccccc1 .
102%

What viability at 72 h, 10 µM value was documented for this molecule, O=C(Nc1ncccc1OCc1ccc(Cl)cc1)NC1CCCCCC1 ?
85.2%
